- System: fat cells
- Run Description: Synthesis of fat from glucose in fat cells
- Format: cell-based, male wister rats
- Stated Conditions: 20 μg/ml; 37° C., half an hour
Power for synthesis of neutral fat from glucose overview

Which Power for synthesis of neutral fat from glucose value belongs to CC(C)=CCC[C@](C)(O[C@@H]1O[C@H](CO[C@@H]2O[C@@H](C)[C@H](O)[C@@H](O)[C@H]2O)[C@@H](O)[C@H](O)[C@H]1O)[C@H]1CC[C@]2(C)[C@@H]1[C@H](O)C[C@@H]1[C@@]3(C)CC[C@H](O)C(C)(C)[C@@H]3CC[C@]12C ?
9,870 cpm/g

Please look at the following compound next.
Which Power for synthesis of neutral fat from glucose value belongs to CC(C)=CCC[C@](C)(O[C@@H]1O[C@H](CO[C@@H]2O[C@@H](C)[C@H](O)[C@@H](O)[C@H]2O)[C@@H](O)[C@H](O)[C@H]1O)[C@H]1CC[C@]2(C)[C@@H]1[C@H](O)C[C@@H]1[C@@]3(C)CC[C@H](O[C@@H]4O[C@H](CO)[C@@H](O)[C@H](O)[C@H]4O[C@@H]4O[C@H](CO)[C@@H](O)[C@H](O)[C@H]4O)C(C)(C)[C@@H]3CC[C@]12C ?
10,248 cpm/g

# credit: patent US4339442A
